In this section, each of the compounds is paired with its reported MIC.
- System: Enterococcus faecalis ATCC 29212
- methodDescription: Broth microdilution MIC, E. faecalis ATCC 29212
- Assay type: cell-based
- conditionNotes: ATCC29212, broth microdilution, 37° C., 20 hours, read-out: MIC E. faecalis ATCC 29212
// units = µg/mL; emit number, no label

Guide cases for MIC, answers given:
Cl.O=c1[nH]c(NCc2ccc(Cl)c(Cl)c2)nc2cnn(CCN3CCC(O)CC3)c12 [Compound 65]
8
O=C1CC(Cn2ncc3nc(NCc4ccc(Cl)c(Cl)c4)[nH]c(=O)c32)CN1CCO (stereo not shown) [Compound 177]
32
COCC(CN(C)C)OCCn1ncc2nc(NCc3ccc(Cl)c(Cl)c3)[nH]c(=O)c21.Cl (stereo not shown) [Compound 183]
32
CN(C)C1CCN(CCn2ncc3nc(NCc4ccc(Cl)c(Cl)c4)[nH]c(=O)c32)CC1.Cl.Cl [Compound 67]
16

q: Item under review: O=c1[nH]c(NCc2ccc(Cl)c(Cl)c2)nc2cnn(CCSCCO)c12 [Compound 104] . Reported MIC?
a: 4
